- Tested on: SW 1573
- Test: relative viability (nuclei count vs DMSO), 5 days (fraction); higher = more cells survive
- Measurement Setup: first compound 0.1581 µM
Parameter: relative viability. Scope: all listed entries.
Assay Metric: relative viability

{"columns": ["Compound", "Readout Number"],
 "data": [
  ["COc1cc2nccc(Oc3ccc(NC(=O)Nc4cc(C)on4)c(Cl)c3)c2cc1OC [Tivozanib] + CC1(C)CCC(c2ccc(Cl)cc2)=C(CN2CCN(c3ccc(C(=O)NS(=O)(=O)c4ccc(N[C@H](CCN5CCOCC5)CSc5ccccc5)c(S(=O)(=O)C(F)(F)F)c4)cc3)CC2)C1 [Navitoclax] (partner 0.5 µM)", 0.777],
  ["Nc1ccn([C@@H]2O[C@H](CO)[C@@H](O)[C@@H]2O)c(=O)n1 [Cytarabine] + CC1(C)CCC(c2ccc(Cl)cc2)=C(CN2CCN(c3ccc(C(=O)NS(=O)(=O)c4ccc(N[C@H](CCN5CCOCC5)CSc5ccccc5)c(S(=O)(=O)C(F)(F)F)c4)cc3)CC2)C1 [Navitoclax] (partner 0.5 µM)", 0.223],
  ["COc1cc2nccc(Oc3ccc(NC(=O)Nc4cc(C)on4)c(Cl)c3)c2cc1OC [Tivozanib] + O=C(c1cc(Cc2n[nH]c(=O)c3ccccc23)ccc1F)N1CCN(C(=O)C2CC2)CC1 [Olaparib] (partner 8 µM)", 0.506],
  ["Nc1ccn([C@@H]2O[C@H](CO)[C@@H](O)[C@@H]2O)c(=O)n1 [Cytarabine] + N=C(N)NC(=N)NCCc1ccccc1 [Phenformin] (partner 250 µM)", 0.131]
]}

====

- System: EPLC-272H
- Test: relative viability (nuclei count vs DMSO), 5 days (fraction); higher = more cells survive
- Measurement Setup: first compound 0.5 µM

{"columns": ["Compound", "relative viability"],
 "data": [
  ["Nc1ccn([C@@H]2O[C@H](CO)[C@@H](O)[C@@H]2O)c(=O)n1 [Cytarabine] + CC1(C)CCC(c2ccc(Cl)cc2)=C(CN2CCN(c3ccc(C(=O)NS(=O)(=O)c4ccc(N[C@H](CCN5CCOCC5)CSc5ccccc5)c(S(=O)(=O)C(F)(F)F)c4)cc3)CC2)C1 [Navitoclax] (partner 0.5 µM)", 0.247],
  ["Nc1ccn([C@@H]2O[C@H](CO)[C@@H](O)[C@@H]2O)c(=O)n1 [Cytarabine] + CC(C)C[C@H](NC(=O)[C@H](Cc1ccccc1)NC(=O)c1cnccn1)B(O)O [Bortezomib] (partner 0.002 µM)", 0.453],
  ["COc1cc2nccc(Oc3ccc(NC(=O)Nc4cc(C)on4)c(Cl)c3)c2cc1OC [Tivozanib] + CC(=O)c1c(C)c2cnc(Nc3ccc(N4CCNCC4)cn3)nc2n(C2CCCC2)c1=O [Palbociclib] (partner 0.5 µM)", 0.282],
  ["Nc1ccn([C@@H]2O[C@H](CO)[C@@H](O)[C@@H]2O)c(=O)n1 [Cytarabine] + CC(=O)Nc1cccc(-n2c(=O)n(C3CC3)c(=O)c3c(Nc4ccc(I)cc4F)n(C)c(=O)c(C)c32)c1 [Trametinib] (partner 0.02 µM)", 0.22]
]}

====

- System: NCI-H460
- Test: relative viability (nuclei count vs DMSO), 5 days (fraction); higher = more cells survive
- Measurement Setup: first compound 2.53 µM
# Lookup of reported relative viability keyed by entry
Assay Metric: relative viability

{"columns": ["Molecule", "Readout Number"],
 "data": [
  ["O=c1[nH]c2ccccc2n1C1CCN(CCCC(c2ccc(F)cc2)c2ccc(F)cc2)CC1 [Pimozide] + Cc1nc(NC(=O)N2CCC[C@H]2C(N)=O)sc1-c1ccnc(C(C)(C)C(F)(F)F)c1 [Alpelisib] (partner 2 µM)", 0.487],
  ["O=c1[nH]c2ccccc2n1C1CCN(CCCC(c2ccc(F)cc2)c2ccc(F)cc2)CC1 [Pimozide] + CC(=O)Nc1cccc(-n2c(=O)n(C3CC3)c(=O)c3c(Nc4ccc(I)cc4F)n(C)c(=O)c(C)c32)c1 [Trametinib] (partner 0.02 µM)", 0.185],
  ["Cc1cnc(-c2cnc(NCCNc3ccc(C#N)cn3)nc2-c2ccc(Cl)cc2Cl)[nH]1 + Nc1ncn([C@H]2C[C@H](O)[C@@H](CO)O2)c(=O)n1 [Decitabine] (partner 2 µM)", 0.488],
  ["Cc1cnc(-c2cnc(NCCNc3ccc(C#N)cn3)nc2-c2ccc(Cl)cc2Cl)[nH]1 + CCNC(=O)c1noc(-c2cc(C(C)C)c(O)cc2O)c1-c1ccc(CN2CCOCC2)cc1 [Luminespib] (partner 0.01 µM)", 0.0279],
  ["O=c1[nH]c2ccccc2n1C1CCN(CCCC(c2ccc(F)cc2)c2ccc(F)cc2)CC1 [Pimozide] + CC(=O)c1c(C)c2cnc(Nc3ccc(N4CCNCC4)cn3)nc2n(C2CCCC2)c1=O [Palbociclib] (partner 0.5 µM)", 0.221]
]}

====

- Tested on: CAL-12T
- Test: relative viability (nuclei count vs DMSO), 5 days (fraction); higher = more cells survive
- Measurement Setup: first compound 5 µM
Catalogue of relative viability readings, one per entry.
Assay Metric: relative viability

{"columns": ["Compound", "Readout Number"],
 "data": [
  ["O=C(O)CCCCC(CCSCc1ccccc1)SCc1ccccc1 (configuration not stated) [CPI-613] + Cc1nc(Nc2ncc(C(=O)Nc3c(C)cccc3Cl)s2)cc(N2CCN(CCO)CC2)n1 [Dasatinib] (partner 0.075 µM)", 0.398],
  ["O=C(O)CCCCC(CCSCc1ccccc1)SCc1ccccc1 (configuration not stated) [CPI-613] + C[C@]1(O)C[C@@H](c2nc(-c3ccc4ccc(-c5ccccc5)nc4c3)c3c(N)nccn32)C1 [Linsitinib] (partner 1 µM)", 0.865],
  ["O=C(O)CCCCC(CCSCc1ccccc1)SCc1ccccc1 (configuration not stated) [CPI-613] + CC(C)C[C@H](NC(=O)[C@H](Cc1ccccc1)NC(=O)c1cnccn1)B(O)O [Bortezomib] (partner 0.002 µM)", 0.866],
  ["O=C(O)CCCCC(CCSCc1ccccc1)SCc1ccccc1 (configuration not stated) [CPI-613] + Cc1cc(Nc2cc(N3CCN(C)CC3)nc(Sc3ccc(NC(=O)C4CC4)cc3)n2)n[nH]1 [Tozasertib] (partner 0.1 µM)", 0.284],
  ["O=C(O)CCCCC(CCSCc1ccccc1)SCc1ccccc1 (configuration not stated) [CPI-613] + CC(=O)Nc1cccc(-n2c(=O)n(C3CC3)c(=O)c3c(Nc4ccc(I)cc4F)n(C)c(=O)c(C)c32)c1 [Trametinib] (partner 0.02 µM)", 0.286],
  ["O=C(O)CCCCC(CCSCc1ccccc1)SCc1ccccc1 (configuration not stated) [CPI-613] + CS(=O)(=O)N1CCN(Cc2cc3nc(-c4cccc5[nH]ncc45)nc(N4CCOCC4)c3s2)CC1 [Pictilisib] (partner 1 µM)", 0.255],
  ["O=C(O)CCCCC(CCSCc1ccccc1)SCc1ccccc1 (configuration not stated) [CPI-613] + N=C(N)NC(=N)NCCc1ccccc1 [Phenformin] (partner 250 µM)", 0.538]
]}

====

- System: A-427
- Test: relative viability (nuclei count vs DMSO), 5 days (fraction); higher = more cells survive
- Measurement Setup: first compound 2.53 µM
# reported relative viability; entries follow

{"columns": ["Molecule", "relative viability"],
 "data": [
  ["O=c1[nH]c2ccccc2n1C1CCN(CCCC(c2ccc(F)cc2)c2ccc(F)cc2)CC1 [Pimozide] + Cc1nc(Nc2ncc(C(=O)Nc3c(C)cccc3Cl)s2)cc(N2CCN(CCO)CC2)n1 [Dasatinib] (partner 0.075 µM)", 0.654],
  ["Cc1cnc(-c2cnc(NCCNc3ccc(C#N)cn3)nc2-c2ccc(Cl)cc2Cl)[nH]1 + NC(=O)Nc1cc(-c2cccc(F)c2)sc1C(=O)N[C@H]1CCCNC1 [AZD7762] (partner 0.2 µM)", 0.714],
  ["O=c1[nH]c2ccccc2n1C1CCN(CCCC(c2ccc(F)cc2)c2ccc(F)cc2)CC1 [Pimozide] + CC(=O)c1c(C)c2cnc(Nc3ccc(N4CCNCC4)cn3)nc2n(C2CCCC2)c1=O [Palbociclib] (partner 0.5 µM)", 0.457],
  ["O=c1[nH]c2ccccc2n1C1CCN(CCCC(c2ccc(F)cc2)c2ccc(F)cc2)CC1 [Pimozide] + CC(C)C[C@H](NC(=O)[C@H](Cc1ccccc1)NC(=O)c1cnccn1)B(O)O [Bortezomib] (partner 0.002 µM)", 0.956],
  ["O=c1[nH]c2ccccc2n1C1CCN(CCCC(c2ccc(F)cc2)c2ccc(F)cc2)CC1 [Pimozide] + CS(=O)(=O)CCNCc1ccc(-c2ccc3ncnc(Nc4ccc(OCc5cccc(F)c5)c(Cl)c4)c3c2)o1 [Lapatinib] (partner 2 µM)", 0.911],
  ["Cc1cnc(-c2cnc(NCCNc3ccc(C#N)cn3)nc2-c2ccc(Cl)cc2Cl)[nH]1 + O=C(CCCCCCC(=O)Nc1ccccc1)NO [Vorinostat] (partner 1 µM)", 0.854],
  ["O=c1[nH]c2ccccc2n1C1CCN(CCCC(c2ccc(F)cc2)c2ccc(F)cc2)CC1 [Pimozide] + Nc1ncn([C@H]2C[C@H](O)[C@@H](CO)O2)c(=O)n1 [Decitabine] (partner 2 µM)", 0.479]
]}
